Biological target: Recombinant human PKC-delta (His-tagged 345-676) (Homo sapiens, UniProt Q05655)
Construct: PKC-delta (His-tagged 345-676); His
Sequence (Q05655 345-676): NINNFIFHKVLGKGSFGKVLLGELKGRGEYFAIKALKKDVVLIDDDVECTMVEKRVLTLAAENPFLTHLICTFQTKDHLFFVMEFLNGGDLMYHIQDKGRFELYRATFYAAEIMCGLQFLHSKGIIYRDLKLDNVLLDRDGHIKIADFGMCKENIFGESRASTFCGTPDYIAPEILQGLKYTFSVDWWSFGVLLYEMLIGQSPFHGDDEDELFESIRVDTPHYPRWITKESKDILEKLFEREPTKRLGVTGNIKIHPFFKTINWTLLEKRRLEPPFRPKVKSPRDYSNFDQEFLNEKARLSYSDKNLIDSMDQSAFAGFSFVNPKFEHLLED
Experiment: PKC-delta inhibition assay (HTRF KinEASE kit)
Type: biochemical
Details: ratio, PKC-theta vs PKC-delta HTRF
PKC-theta/PKC-delta selectivity of 10 or higher: Criterion met. Under 10: Criterion not met.

The examples below pair each entry with its known result.
CC[C@]1(C)C(=O)Nc2nccc(-c3cc(C(F)(F)F)cc(N4CCNC[C@H]4C)n3)c21 (single isomer, unassigned)
Criterion met
CC1(C)C(=O)Nc2ncc(Br)c(-c3cc(F)cc(N4CCNCC4)c3)c21
Criterion not met
CC1(C)C(=O)Nc2nccc(-c3cc(C(F)(F)F)cc(N4CC5CC4CN5)n3)c21 (centres unmarked)
Criterion met
C[C@@H]1NCCN(c2cc(C(F)(F)F)cc(-c3ccnc4c3C(C)(C)C(=O)N4)n2)[C@@H]1C
Criterion met

Q: Form field: PKC-theta/PKC-delta selectivity at least 10? Entry: CC1(C)C(=O)Nc2nccc(-c3ccnc(N4CCNCC4)c3)c21
Result: Criterion not met

###

Target: Recombinant human PKC-theta (His-tagged 362-706) (Homo sapiens, UniProt Q04759)
Construct: Recombinant human PKC-theta (His-tagged 362-706); His
Sequence (Q04759 362-706): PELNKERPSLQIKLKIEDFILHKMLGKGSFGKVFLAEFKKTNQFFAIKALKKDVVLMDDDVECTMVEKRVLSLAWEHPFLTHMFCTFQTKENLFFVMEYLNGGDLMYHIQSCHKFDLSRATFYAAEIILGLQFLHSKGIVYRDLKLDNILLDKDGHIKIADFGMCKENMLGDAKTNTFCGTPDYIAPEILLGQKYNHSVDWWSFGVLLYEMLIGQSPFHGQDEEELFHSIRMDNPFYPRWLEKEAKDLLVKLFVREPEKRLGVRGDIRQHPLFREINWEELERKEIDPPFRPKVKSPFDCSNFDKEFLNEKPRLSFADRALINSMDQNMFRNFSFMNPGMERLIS
Assay: PKC-theta inhibition assay (HTRF KinEASE kit)
Assay type: biochemical
Conditions: ATP 6.5 μM; STK substrate 525 nM; read-out: PKC-theta HTRF pIC50 (converted)
REPORTED_METRIC: IC50

Q: Can you share its IC50? I mean this molecule: COC1(C)C(=O)Nc2nccc(-c3cc(Cl)cc(N4CCN[C@@H](C)C4)n3)c21 (stereo partly drawn) [Example 115]
Result: 10 nM

Q: Can you share its IC50? I mean this molecule: C[C@@]1(O)C(=O)Nc2nccc(-c3cc(C(F)(F)F)cc(N4CCNC(CC(F)(F)F)C4)n3)c21 (stereo partly drawn) [Example 125]
Result: 15.8 nM

Q: Can you share its IC50? I mean this molecule: CC[C@@]1(C)C(=O)Nc2nccc(-c3cc(C(C)(F)F)cc(N4CCNC[C@H]4C)n3)c21 (single isomer, unassigned) [Example 202]
Result: 3.98 nM

Q: Can you share its IC50? I mean this molecule: CC1(C)C(=O)Nc2ncc(Cl)c(-c3cc(F)cc(N4CCNCC4)c3)c21 [Example 79]
Result: 39.8 nM

Q: Can you share its IC50? I mean this molecule: CC1(C)C(=O)Nc2nccc(-c3cc(Cl)cc(N4CCNCC4)n3)c21 [Example 65]
Result: 2 nM

Q: Can you share its IC50? I mean this molecule: C[C@@H]1CNCCN1c1cc(C(F)(F)F)cc(-c2c(F)cnc3c2C(C)(C)C(=O)N3)n1 [Example 156]
Result: 12.6 nM

###

Target: Recombinant human PKC-theta (His-tagged 362-706) (Homo sapiens, UniProt Q04759)
Construct: Recombinant human PKC-theta (His-tagged 362-706); His
Assay: PKC-theta inhibition assay (HTRF KinEASE kit)
Assay type: biochemical
Conditions: ATP 6.5 μM; STK substrate 525 nM; binned A to H; read-out: PKC-theta HTRF pIC50 (binned) (converted)
REPORTED_METRIC: IC50

Would you please look over these solved cases?
CC1(C)C(=O)Nc2nccc(-c3cc(C(F)(F)F)cc(N4CCCNCC4)n3)c21
3.16 to 10 nM
O=c1[nH]c2nccc(-c3cccc(N4CCNCC4c4cccnc4)c3)c2[nH]1 (stereo not drawn)
> 1000 nM
CC1(C)C(=O)Nc2nccc(-c3cc(C(F)(F)F)cc(N4CCNC[C@H]4CO)n3)c21
1 to 3.16 nM
CC1(O)C(=O)Nc2nccc(-c3cc(C(F)(F)F)cc(N4CCNCC4)n3)c21 (stereo not drawn)
3.16 to 10 nM

Q: Can you share its IC50? I mean this compound: C[C@H]1NCCN(c2cc(C(F)(F)F)cc(-c3ccnc4c3C(C)(C)C(=O)N4)n2)[C@H]1C [Example 168]
Result: 0.316 to 1 nM

Q: Can you share its IC50? I mean this compound: CC1(C)C(=O)Nc2nccc(-c3cc(C(F)(F)F)nc(N4CCNCC4)n3)c21
Result: 10 to 31.6 nM

Q: Can you share its IC50? I mean this compound: C[C@@H]1CNCCN1c1cc(C(F)(F)F)cc(-c2ccnc3c2C(C)(C)C(=O)N3)n1
Result: 1 to 3.16 nM

Q: Can you share its IC50? I mean this compound: C[C@H]1CN(c2cc(-c3ccnc4c3[C@@](C)(O)C(=O)N4)cc(C(F)(F)F)c2)CCN1 (single isomer, unassigned) [Example 81]
Result: 10 to 31.6 nM
